Hi there, I'd appreciate the recorded pIC50 for every entry that follows.
- MEASURED_TARGET: D2 receptor (rat brain striatal membrane preparation) (Rattus norvegicus)
- Construct: on rat brain striatal membrane preparation
- Sequence (P61169 whole entry): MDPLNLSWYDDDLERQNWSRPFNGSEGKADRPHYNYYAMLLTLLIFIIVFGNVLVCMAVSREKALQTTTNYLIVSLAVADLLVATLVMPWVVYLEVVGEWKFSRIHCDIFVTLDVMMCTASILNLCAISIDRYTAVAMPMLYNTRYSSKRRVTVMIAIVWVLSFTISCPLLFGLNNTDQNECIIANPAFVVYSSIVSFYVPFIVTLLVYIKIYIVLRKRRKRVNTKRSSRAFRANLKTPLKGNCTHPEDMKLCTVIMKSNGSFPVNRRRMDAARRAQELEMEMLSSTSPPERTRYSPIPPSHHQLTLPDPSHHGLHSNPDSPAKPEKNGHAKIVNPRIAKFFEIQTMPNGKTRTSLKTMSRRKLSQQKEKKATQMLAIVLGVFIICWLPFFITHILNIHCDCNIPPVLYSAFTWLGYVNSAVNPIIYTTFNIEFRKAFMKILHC
- PROCEDURE_DETAILS: D2 receptor binding ([3H]-spiperone)
- CONDITIONS_USED: rat brain striatal membranes, [3H]-spiperone 0.6 nM; read-out: D2 IC-50
pIC50: −log10 of the molar value.

Worked set:
O=C(Nc1ccccc1)N[C@H]1CC[C@H](CCN2CCN(c3cccc(Cl)c3Cl)CC2)CC1 [Compound 48]
7.30 to 8.00
CCCNC(=S)N[C@H]1CC[C@H](CCN2CCN(c3cccc(Cl)c3Cl)CC2)CC1 [Compound 42]
7.30 to 8.00
CCCCNC(=O)N[C@H]1CC[C@H](CCN2CCN(c3cccc(Cl)c3Cl)CC2)CC1 [Compound 24]
7.30 to 8.00
CCOC(=O)CNC(=O)N[C@H]1CC[C@H](CCN2CCN(c3cccc(Cl)c3Cl)CC2)CC1 [Compound 51]
7.30 to 8.00
CN(C)C(=O)N[C@H]1CC[C@H](CCN2CCCN(c3cccc(Cl)c3Cl)CC2)CC1 [Compound 7]
7.30 to 8.00

I need pIC50 for every entry listed below, if you could help.
1. COc1ccc(NC(=O)N[C@H]2CC[C@H](CCN3CCN(c4cccc(Cl)c4Cl)CC3)CC2)cc1 [Compound 50]
2. O=C(N[C@H]1CC[C@H](CCN2CCCN(c3cccc(Cl)c3Cl)CC2)CC1)N1CCCC1 [Compound 9]
3. C=CCNC(=O)N[C@H]1CC[C@H](CCN2CCN(c3cccc(Cl)c3Cl)CC2)CC1 [Compound 21]
4. CC(C)(C)NC(=S)N[C@H]1CC[C@H](CCN2CCN(c3cccc(Cl)c3Cl)CC2)CC1 [Compound 38]

[out]
6.70 to 7.30
8.00 to 9.00
7.30 to 8.00
7.30 to 8.00

Items follow; give pIC50 for each.
1. O=C(NCc1ccccc1)N[C@H]1CC[C@H](CCN2CCN(c3cccc(Cl)c3Cl)CC2)CC1 [Compound 49]
2. CC(C)NC(=O)N[C@H]1CC[C@H](CCN2CCN(c3cccc(Cl)c3Cl)CC2)CC1 [Compound 5]
3. O=C(N[C@H]1CC[C@H](CCN2CCN(c3cccc(Cl)c3Cl)CC2)CC1)N1CCCC1 [Compound 8]
4. COc1cc(NC(=O)N[C@H]2CC[C@H](CCN3CCN(c4cccc(Cl)c4Cl)CC3)CC2)cc(OC)c1OC [Compound 32]
5. CCNC(=O)N[C@H]1CC[C@H](CCN2CCCN(c3cccc(Cl)c3Cl)CC2)CC1 [Compound 6]
6. CCCNC(=O)N[C@H]1CC[C@H](CCN2CCN(c3cccc(Cl)c3Cl)CC2)CC1 [Compound 4]
7. CCOC(=O)CNC(=S)N[C@H]1CC[C@H](CCN2CCN(c3cccc(Cl)c3Cl)CC2)CC1 [Compound 44]

[out]
1. 6.70 to 7.30
2. 7.30 to 8.00
3. 7.30 to 8.00
4. 7.30 to 8.00
5. 7.30 to 8.00
6. 7.30 to 8.00
7. 7.30 to 8.00

[in] Quick one: give measured pIC50 for CCNC(=S)N[C@H]1CC[C@H](CCN2CCN(c3cccc(Cl)c3Cl)CC2)CC1 [Compound 45]
[out] 7.30 to 8.00

----------
Kindly state melting point for each of the entries shown.

// worked examples, melting point included
O=C(N[C@H]1CC[C@H](CCN2CCN(c3cccc(Cl)c3Cl)CC2)CC1)N1CCC(O)CC1
178 to 180 °C
O=C(N[C@H]1CC[C@H](CCN2CCN(c3cccc(Cl)c3Cl)CC2)CC1)N1CCCCC1
188 to 190 °C
CCN(C)C(=O)N[C@H]1CC[C@H](CCN2CCN(c3cccc(Cl)c3Cl)CC2)CC1
195 to 198 °C
CN1CCN(C(=O)N[C@H]2CC[C@H](CCN3CCN(c4cccc(Cl)c4Cl)CC3)CC2)CC1
166 to 168 °C
O=C(N[C@H]1CC[C@H](CCN2CCN(c3cccc(Cl)c3Cl)CC2)CC1)N1CCCC1
201 to 203 °C

Batch request: melting point per item, same order as input.
1. O=C(N[C@H]1CC[C@H](CCN2CCN(c3cccc(Cl)c3Cl)CC2)CC1)N1CCNCC1
2. CN(C)C(=O)N[C@H]1CC[C@H](CCN2CCCN(c3cccc(Cl)c3Cl)CC2)CC1
3. CCCNC(=O)N[C@H]1CC[C@H](CCN2CCN(c3cccc(Cl)c3Cl)CC2)CC1

[out]
1. 293 to 296 °C
2. 168 to 172 °C
3. 218 to 220 °C

For each of the items listed, what is its melting point?
1. O=C(N[C@H]1CC[C@H](CCN2CCN(c3cccc(Cl)c3Cl)CC2)CC1)N1CCOCC1
2. CC(C)NC(=O)N[C@H]1CC[C@H](CCN2CCN(c3cccc(Cl)c3Cl)CC2)CC1
3. CCN(CC)C(=O)N[C@H]1CC[C@H](CCN2CCN(c3cccc(Cl)c3Cl)CC2)CC1
4. CCNC(=O)N[C@H]1CC[C@H](CCN2CCCN(c3cccc(Cl)c3Cl)CC2)CC1
5. CCNC(=O)N[C@H]1CC[C@H](CCN2CCN(c3cccc(Cl)c3Cl)CC2)CC1

[out]
201 to 203 °C
227 to 230 °C
171 to 173 °C
115 to 118 °C
235 to 238 °C
